Record form. Attribute: T/C. Fill in for each entry.
- Tested on: L1210 leukemia ip in BDF1 mice, survival T/C
- Assay procedure: NCI In Vivo Anticancer Drug Screen. Data for tumor model L1210 Leukemia (intraperitoneal) in B6D2F1 (BDF1) mice
- Measurement setup: endpoint: mean survival time; dose: 400.0 mg/kg/injection; schedule: Q01DX009 (ip); vehicle: saline; higher = longer survival
Toxic doses and inconclusive results are not listed.

Worked examples, 5 compounds total:
>  <Compound>
Cc1ccc(C(=O)OCC2OC(n3cnc4c(=S)nc(N)[nH]c43)C(OC(=O)c3ccc(C)cc3)C2OC(=O)c2ccc(C)cc2)cc1 (stereo unspecified)

>  <Tested target>
L1210 leukemia ip in BDF1 mice, survival T/C

>  <Property name>
T/C

>  <Obs value>
116 % of control

$$$$
>  <Compound>
c1ccc2c(c1)CNC2

>  <Tested target>
L1210 leukemia ip in BDF1 mice, survival T/C

>  <Property name>
T/C

>  <Obs value>
92 % of control

$$$$
>  <Compound>
COC(=O)Cc1cn[nH]c1C(=O)OC

>  <Tested target>
L1210 leukemia ip in BDF1 mice, survival T/C

>  <Property name>
T/C

>  <Obs value>
95 % of control

$$$$
>  <Compound>
CCOC(=O)C1C(C(=O)c2ccc(C)cc2)C2(Cl)C(Cl)=C(Cl)C1(Cl)C2(Cl)Cl (stereo unspecified)

>  <Tested target>
L1210 leukemia ip in BDF1 mice, survival T/C

>  <Property name>
T/C

>  <Obs value>
98 % of control

$$$$
>  <Compound>
CC(O)C(C)(C)CO (stereo unspecified)

>  <Tested target>
L1210 leukemia ip in BDF1 mice, survival T/C

>  <Property name>
T/C

>  <Obs value>
90 % of control

$$$$

Now examine the next entry.
Query: Look at this compound and give its reported T/C. O=C1OC(c2ccccc2)=NC1c1ccccc1 (stereo unspecified)
Reply: 97 % of control
